Data provenance: paper PMC10668032

The entries below are paired with their reported binding signal.
Molecular target: SIX1 homeodomain (reference allele) (human, UniProt Q15475 108-198)
Sequence: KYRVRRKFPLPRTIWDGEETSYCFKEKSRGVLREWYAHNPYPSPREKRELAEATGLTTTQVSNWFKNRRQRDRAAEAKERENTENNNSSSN
Assay: universal protein binding microarray; Universal all-10-mer PBM (8x60K, AMADID 030236), 300 nM GST-tagged protein, Alexa Fluor 488 anti-GST; buffer, salt, pH and temperature not stated (as in Berger); high values mean tight binding
Settings: protein: ivt; tags: N-terminal GST; dsDNA, one strand shown
Over roughly 33,000 sequences, “e-score” has its median near -0.053; the highest 2% begin near 0.38. Shown is part of a subset that was picked to be rich in the highest values.
Reply numerically in E-score, unit not repeated.

- CAGGATCA: 0.386
- GATCATCA: 0.34

Lookup: Name the recorded binding signal of the sequence listed here: ATCATAAC
Found: 0.281

Lookup: Name the recorded binding signal of the sequence listed here: AGATCTCC
Found: 0.184

Lookup: Name the recorded binding signal of the sequence listed here: TGATCCAA
Found: 0.324

Lookup: Name the recorded binding signal of the sequence listed here: AGCTATCG
Found: 0.284

Lookup: Name the recorded binding signal of the sequence listed here: AATATGTG
Found: 0.197

Lookup: Name the recorded binding signal of the sequence listed here: ACTAGGAT
Found: 0.187

Lookup: Name the recorded binding signal of the sequence listed here: GATCACGC
Found: 0.317

Lookup: Name the recorded binding signal of the sequence listed here: AAGGGTGT
Found: 0.32

Lookup: Name the recorded binding signal of the sequence listed here: AGATCCCA
Found: 0.213

* * *

Molecular target: SIX1 homeodomain (reference allele) (human, UniProt Q15475 108-198)
Sequence: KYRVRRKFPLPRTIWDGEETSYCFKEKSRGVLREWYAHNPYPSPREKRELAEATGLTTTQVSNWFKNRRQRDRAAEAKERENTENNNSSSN
Assay: universal protein binding microarray; Universal all-10-mer PBM (8x60K, AMADID 030236), 300 nM GST-tagged protein, Alexa Fluor 488 anti-GST; buffer, salt, pH and temperature not stated (as in Berger); high values mean tight binding
Settings: protein: ivt; tags: N-terminal GST; dsDNA, one strand shown
In all, about 33,000 sequences were measured (“e-score”: median about -0.053, highest 2% from about 0.38 on). The sample as a whole holds a higher share of the highest values than the screen did.
The entries below are paired with their reported binding signal.

- GGCGGGGA: 0.174 E-score
- ATCAAGCG: 0.228 E-score
- ATATGGGA: 0.319 E-score
- GATCCATA: 0.357 E-score
- GATATCCA: 0.452 E-score
- CCCGTATA: 0.29 E-score
- ACCAGTAT: 0.24 E-score
- GATACGAA: 0.335 E-score
- GGATCGGA: 0.38 E-score
- ATATAGTC: 0.209 E-score

Lookup: Name the recorded binding signal of the sequence listed here: ACTCATAT
Found: 0.25 E-score

Lookup: Name the recorded binding signal of the sequence listed here: GAGTATAA
Found: 0.179 E-score

Lookup: Name the recorded binding signal of the sequence listed here: ACCGTCTC
Found: 0.251 E-score

Lookup: Name the recorded binding signal of the sequence listed here: CCCGTATC
Found: 0.469 E-score

Lookup: Name the recorded binding signal of the sequence listed here: ACAGATAC
Found: 0.341 E-score

Lookup: Name the recorded binding signal of the sequence listed here: AGATCACA
Found: 0.255 E-score

Lookup: Name the recorded binding signal of the sequence listed here: ATCATCGC
Found: 0.326 E-score

Lookup: Name the recorded binding signal of the sequence listed here: GATAGTAA
Found: 0.221 E-score

Lookup: Name the recorded binding signal of the sequence listed here: CATGATAC
Found: 0.481 E-score

Lookup: Name the recorded binding signal of the sequence listed here: GATTACGC
Found: 0.225 E-score

Lookup: Name the recorded binding signal of the sequence listed here: AATACGAC
Found: 0.18 E-score

Lookup: Name the recorded binding signal of the sequence listed here: GGGCTATA
Found: 0.2 E-score

Lookup: Name the recorded binding signal of the sequence listed here: GAGTATTA
Found: 0.261 E-score

Lookup: Name the recorded binding signal of the sequence listed here: AAGTGATC
Found: 0.391 E-score

Lookup: Name the recorded binding signal of the sequence listed here: AACCCGAT
Found: 0.25 E-score

Lookup: Name the recorded binding signal of the sequence listed here: CATGACAC
Found: 0.35 E-score

Lookup: Name the recorded binding signal of the sequence listed here: GGAGATCC
Found: 0.374 E-score

Lookup: Name the recorded binding signal of the sequence listed here: CGATCGGA
Found: 0.24 E-score

Lookup: Name the recorded binding signal of the sequence listed here: ATCATAAG
Found: 0.286 E-score

Lookup: Name the recorded binding signal of the sequence listed here: CATCCTGA
Found: 0.169 E-score
